These entries and their values trace back to ChEMBL document CHEMBL1144202.

- target.or.system: Vasopressin V1a receptor (Homo sapiens, UniProt P37288)
- Sequence (P37288 whole entry): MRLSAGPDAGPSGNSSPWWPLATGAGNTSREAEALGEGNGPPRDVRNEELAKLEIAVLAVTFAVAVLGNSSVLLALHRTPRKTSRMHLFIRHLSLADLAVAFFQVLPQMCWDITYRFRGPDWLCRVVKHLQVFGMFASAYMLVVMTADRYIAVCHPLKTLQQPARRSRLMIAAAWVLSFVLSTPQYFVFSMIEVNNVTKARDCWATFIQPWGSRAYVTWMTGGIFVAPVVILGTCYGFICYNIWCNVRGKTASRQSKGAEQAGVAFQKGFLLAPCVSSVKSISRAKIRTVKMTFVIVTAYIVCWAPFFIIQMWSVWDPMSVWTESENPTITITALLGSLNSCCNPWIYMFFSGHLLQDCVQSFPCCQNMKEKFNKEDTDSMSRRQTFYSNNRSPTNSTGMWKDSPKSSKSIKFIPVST
- assay.remarks: Antagonist activity at human vasopressin V1a receptor by cell based beta-lactamase reporter gene assay
Recorded Ki for the following molecules
Note: unit nM is implicit; provide only the numeric part.

INSERT INTO results (structure, target_or_system, recorded_number) VALUES
  ('CCOCc1nnc(-c2ccc(OCC)c(C)c2)n1-c1ccc(OC)nc1', 'Vasopressin V1a receptor (Homo sapiens, UniProt P37288)', 594),
  ('CCOc1ccc(-c2nnc(COC)n2-c2ccc(OC)nc2)cc1Cl', 'Vasopressin V1a receptor (Homo sapiens, UniProt P37288)', 2900),
  ('CCOc1ccc(-c2nnc(Cn3nccn3)n2-c2ccc(OC)nc2)cc1C', 'Vasopressin V1a receptor (Homo sapiens, UniProt P37288)', 214),
  ('CCOc1ccc(-c2nnc(COCCOC)n2-c2ccc(OC)nc2)cc1C', 'Vasopressin V1a receptor (Homo sapiens, UniProt P37288)', 1700);

API: the following record is the query input.
# Ki lookup, item CCOc1ccc(-c2nnc(COC)n2-c2ccc(OC)nc2)cc1C 3800

====

- target.or.system: Oxytocin receptor (Homo sapiens, UniProt P30559)
- Sequence (P30559 whole entry): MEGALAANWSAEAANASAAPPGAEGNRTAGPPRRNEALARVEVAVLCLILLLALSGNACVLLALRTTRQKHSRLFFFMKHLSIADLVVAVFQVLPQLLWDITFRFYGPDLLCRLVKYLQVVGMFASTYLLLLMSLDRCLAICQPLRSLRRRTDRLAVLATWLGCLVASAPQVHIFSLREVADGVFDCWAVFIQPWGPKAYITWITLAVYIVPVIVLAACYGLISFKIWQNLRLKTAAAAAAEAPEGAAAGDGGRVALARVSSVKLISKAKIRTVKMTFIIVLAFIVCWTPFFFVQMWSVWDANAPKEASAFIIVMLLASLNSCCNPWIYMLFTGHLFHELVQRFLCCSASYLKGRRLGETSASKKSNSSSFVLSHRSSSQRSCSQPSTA
- assay.remarks: Antagonist activity at human oxytocin receptor by cell based beta-lactamase reporter gene assay
- Type: functional
measure.name: Ki
I'd appreciate it if you wrote the number followed by its unit.

INSERT INTO results (structure, result) VALUES
  ('CCOc1ccc(-c2nnc(Cn3nccn3)n2-c2ccc(OC)nc2)cc1C', '45 nM');

# Ki lookup, item CCOc1ccc(S(=O)(=O)N(CC(=O)N/N=C2\C(=O)Nc3ccccc32)c2ccccc2)cc1 6 nM

# Ki lookup, item CCOc1ccc(-c2nnc(COC)n2-c2ccc(OC)nc2)cc1C 102 nM

# Ki lookup, item CCOc1ccc(-c2nnc(COC)n2-c2ccc(OC)nc2)cc1Cl 144 nM

# Ki lookup, item CCOc1ccc(-c2nnc(COC)n2-c2ccc(OC)nc2)cc1C(F)(F)F 190 nM

# Ki lookup, item CCOc1ccc(-c2nnc(COCCOC)n2-c2ccc(OC)nc2)cc1C 19 nM

# Ki lookup, item CCOCc1nnc(-c2ccc(OCC)c(C)c2)n1-c1ccc(OC)nc1 28 nM

# Ki lookup, item CCOc1ccc(-c2nnc(C)n2-c2ccc(OC)nc2)cc1C 143 nM

====

- assay.remarks: Aqueous solubility at pH 7.4
- Assay type: physicochemical
measure.name: solubility (µg/mL)
Note: unit µg/mL is implicit; provide only the numeric part.

INSERT INTO results (structure, measure_name, value_unit, recorded_number) VALUES
  ('CCOc1ccc(-c2nnc(COC)n2-c2ccc(OC)nc2)cc1C', 'solubility', 'µg/mL', 170);

API: the following record is the query input.
# solubility lookup, item CCOCc1nnc(-c2ccc(OCC)c(C)c2)n1-c1ccc(OC)nc1 344
